endpoint: melting point

Quick one: melting point for COc1cc(N(Cc2nc(C)c3ccccc3n2)S(=O)(=O)c2ccccc2Cl)cc(OC)c1OC [Compound 10d] ?
183 to 184 °C

Quick one: melting point for COc1cc(N(Cc2nc(C)c3ccccc3n2)C(=O)c2ccccc2)cc(OC)c1OC [Compound 11a] ?
112 to 113 °C

Quick one: melting point for COc1ccc(S(=O)(=O)N(Cc2nc(C)c3ccccc3n2)c2ccccc2)cc1 [Compound 14a] ?
85 to 86 °C

Quick one: melting point for COc1cc(N(Cc2nc(C)c3ccccc3n2)C(=O)c2ccc(C)cc2)cc(OC)c1OC [Compound 11e] ?
196 to 197 °C

Quick one: melting point for COc1ccc(S(=O)(=O)N(Cc2nc(C)c3ccccc3n2)c2ccc(C)cc2)cc1 [Compound 14d] ?
129 to 130 °C

Quick one: melting point for COc1cc(N(Cc2nc(C)c3ccccc3n2)S(=O)(=O)c2ccc(F)cc2)cc(OC)c1OC [Compound 10b] ?
162 to 163 °C

====

endpoint: melting point

Quick one: melting point for COc1cc(C(=O)N(Cc2nc(C)c3ccccc3n2)c2cc(OC)c(OC)c(OC)c2)cc(OC)c1OC [Compound 11i] ?
129 to 130 °C

Quick one: melting point for COc1ccc(S(=O)(=O)N(Cc2ccc(OC)c(OC)c2)c2cc(OC)c(OC)c(OC)c2)cc1 [Compound 9e] ?
136 to 137 °C

Quick one: melting point for COc1ccc(S(=O)(=O)N(Cc2ccc(Br)cc2)c2cc(OC)c(OC)c(OC)c2)cc1 [Compound 9c] ?
187 to 188 °C

Quick one: melting point for COc1cc(N(Cc2nc(C)c3ccccc3n2)S(=O)(=O)c2ccccn2)cc(OC)c1OC [Compound 10j] ?
159 to 160 °C

Source: paper PMC8386742
